biological target: human CD33 S28A (human, UniProt P20138 18-364); assay: alanine scan, flow cytometry;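 further: HEK293-T cells transiently expressing single-residue alanine mutants of CD33 (alanine swapped to serine), antibody binding read by fluorescence in duplicate, background-subtracted, expressed relative to wild-type CD33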
Sequence (P20138 18-364 S28A limits assumed): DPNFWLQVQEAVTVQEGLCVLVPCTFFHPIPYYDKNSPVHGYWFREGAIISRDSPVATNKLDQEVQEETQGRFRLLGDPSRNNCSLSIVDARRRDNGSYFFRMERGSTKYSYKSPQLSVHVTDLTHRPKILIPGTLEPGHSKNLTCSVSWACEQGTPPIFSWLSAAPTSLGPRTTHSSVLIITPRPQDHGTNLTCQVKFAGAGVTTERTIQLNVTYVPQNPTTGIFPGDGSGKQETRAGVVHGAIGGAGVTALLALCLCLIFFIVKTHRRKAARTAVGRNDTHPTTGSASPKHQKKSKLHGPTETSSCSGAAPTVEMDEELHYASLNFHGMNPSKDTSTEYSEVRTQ
property: Mean % WT Binding (% WT)
Give the number; % WT is assumed, so skip it.

Please review the following examples before continuing.
| binder | readout.units | Mean % WT Binding |
| --- | --- | --- |
| Refmab #2 (antibody, V domains shown, Full-length format is human IgG1 Fc silent (PG-LALA); The alanine scan used IgG or Fab) VH: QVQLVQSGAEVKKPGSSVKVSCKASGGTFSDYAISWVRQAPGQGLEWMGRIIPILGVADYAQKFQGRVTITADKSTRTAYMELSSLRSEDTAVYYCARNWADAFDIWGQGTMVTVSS VL: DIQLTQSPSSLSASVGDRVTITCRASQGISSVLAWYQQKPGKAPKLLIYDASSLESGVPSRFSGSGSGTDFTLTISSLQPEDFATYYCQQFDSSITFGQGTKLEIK | % WT | 117 |
| Refmab #3 (antibody, V domains shown, Full-length format is human IgG1 Fc silent (PG-LALA); The alanine scan used IgG or Fab) VH: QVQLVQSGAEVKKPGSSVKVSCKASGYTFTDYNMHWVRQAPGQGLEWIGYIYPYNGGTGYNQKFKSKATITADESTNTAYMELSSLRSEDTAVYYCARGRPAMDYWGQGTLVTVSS VL: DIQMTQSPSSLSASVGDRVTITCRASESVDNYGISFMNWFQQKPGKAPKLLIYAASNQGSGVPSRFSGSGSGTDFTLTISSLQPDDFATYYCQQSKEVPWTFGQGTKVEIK | % WT | 193 |
| Refmab #1 (antibody, V domains shown, Full-length format is human IgG1 (Absolute Antibody Ab00283-10.0); The alanine scan used IgG or Fab; also called hP67.6) VH: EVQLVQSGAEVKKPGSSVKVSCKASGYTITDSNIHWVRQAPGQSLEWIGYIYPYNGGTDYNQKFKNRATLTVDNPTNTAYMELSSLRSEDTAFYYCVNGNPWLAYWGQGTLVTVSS VL: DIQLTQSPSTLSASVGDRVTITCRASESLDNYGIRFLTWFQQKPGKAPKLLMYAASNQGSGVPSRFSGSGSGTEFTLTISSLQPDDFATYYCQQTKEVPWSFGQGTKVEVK | % WT | 93.9 |

Consider the additional binder presented here.
Would you mind telling me what Mean % WT Binding value was observed for Refmab #4 (antibody, V domains shown, Full-length format is human IgG1 Fc silent (PG-LALA); The alanine scan used IgG or Fab) VH: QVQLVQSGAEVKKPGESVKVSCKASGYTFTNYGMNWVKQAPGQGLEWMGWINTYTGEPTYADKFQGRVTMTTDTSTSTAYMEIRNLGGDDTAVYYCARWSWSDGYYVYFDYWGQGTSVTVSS VL: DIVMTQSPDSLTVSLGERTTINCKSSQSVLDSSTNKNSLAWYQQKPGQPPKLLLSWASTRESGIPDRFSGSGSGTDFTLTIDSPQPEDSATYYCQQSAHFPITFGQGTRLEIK ? 79.9
